target: Proto-oncogene tyrosine-protein kinase Src (Homo sapiens, UniProt P12931); experiment: Inhibition of Src activity
Sequence (P12931 2-536 limits assumed): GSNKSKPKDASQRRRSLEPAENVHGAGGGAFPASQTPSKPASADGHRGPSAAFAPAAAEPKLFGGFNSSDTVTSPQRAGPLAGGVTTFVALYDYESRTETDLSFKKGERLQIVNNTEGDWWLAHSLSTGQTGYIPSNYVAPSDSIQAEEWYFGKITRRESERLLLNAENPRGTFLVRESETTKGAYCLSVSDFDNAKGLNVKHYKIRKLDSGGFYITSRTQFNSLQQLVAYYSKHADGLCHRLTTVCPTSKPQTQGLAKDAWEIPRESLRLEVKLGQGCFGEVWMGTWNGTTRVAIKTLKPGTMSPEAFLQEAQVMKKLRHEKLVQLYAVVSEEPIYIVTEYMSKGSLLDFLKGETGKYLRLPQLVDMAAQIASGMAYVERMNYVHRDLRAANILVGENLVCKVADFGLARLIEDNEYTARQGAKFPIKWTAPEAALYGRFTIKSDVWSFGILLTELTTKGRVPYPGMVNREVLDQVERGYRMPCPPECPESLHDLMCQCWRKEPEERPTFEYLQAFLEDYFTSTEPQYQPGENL
READOUT_KIND: IC50 (nM)

COc1cc(Nc2c(C#N)cnc3cc(C#CCCN4CCNCC4)c(OC)cc23)c(Cl)cc1Cl    5.4
COc1cc2c(Nc3cc(OC)c(OC)c(OC)c3)c(C#N)cnc2cc1C#CCCN1CCN(C)CC1    21
CCOc1cc2c(Nc3cc(OC)c(Cl)cc3Cl)c(C#N)cnc2cc1C#CCCN1CCN(C)CC1    4.1

1 = COc1cc(Nc2c(C#N)cnc3cc(C#CCCN4CCN(C)CC4)c(OC)cc23)c(Cl)cc1Cl
2 = COc1cc(Nc2c(C#N)cnc3cc(C#CCCN4CCN(C)CC4)ccc23)cc(OC)c1OC
// query So which one has the bigger IC50 here, 1 or 2 ? Choose, then provide that item's label.
// result 2
